Ref: patent US8222202B2

Target: hV1a receptor (Homo sapiens, UniProt P37288)
Construct: expressed in transfected cells; host or cells: HEK-293
Sequence (P37288 whole entry): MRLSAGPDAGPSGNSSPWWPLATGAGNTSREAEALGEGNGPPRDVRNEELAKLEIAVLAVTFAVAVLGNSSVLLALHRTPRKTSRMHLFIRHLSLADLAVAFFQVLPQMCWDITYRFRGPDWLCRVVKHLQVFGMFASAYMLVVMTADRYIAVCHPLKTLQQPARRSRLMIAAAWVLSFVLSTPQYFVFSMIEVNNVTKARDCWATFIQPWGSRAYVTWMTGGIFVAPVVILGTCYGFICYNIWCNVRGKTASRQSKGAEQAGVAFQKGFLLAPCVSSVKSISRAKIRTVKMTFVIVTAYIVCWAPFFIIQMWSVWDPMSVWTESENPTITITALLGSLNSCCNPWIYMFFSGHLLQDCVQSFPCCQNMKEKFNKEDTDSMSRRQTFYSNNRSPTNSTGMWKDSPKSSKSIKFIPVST
Assay: hV1a receptor transcriptional reporter (luciferase) agonist assay
Type: cell-based
Starred links: 1 amine or outer side, 2 acyl side, 3 side chain; linkers in the order of their positions; H or OH if unused. Positions of bridges follow the written chain, without caps; N, C: chain ends. Non-standard residues stand in square brackets, D forms with d. Residues, ends and D or L forms follow the SMILES beside them. Orn(Me) = CN(CCC[C@H](N[*:1])C(=O)[*:2])[*:3]; 4Pal = N[C@@H](Cc1ccncc1)C(=O)O; Dab = NCC[C@H](N)C(=O)O
EC50 values by entry
Give the number; nM is assumed, so skip it.

# compound CC[C@H](C)[C@@H]1NC(=O)[C@H](Cc2ccncc2)NC(=O)[C@@H](N)CSSC[C@@H](C(=O)N2CCC[C@H]2C(=O)N[C@@H](CCN)C(=O)NCC(N)=O)NC(=O)[C@H](CC(N)=O)NC(=O)[C@H](CCC(N)=O)NC1=O [Compound 12] (H-C[4Pal]IQNCP[Dab]G-NH2; disulfide 1-6) ; its EC50 = 25

// switching to the query compound
# compound CC[C@H](C)[C@@H]1NC(=O)[C@H](Cc2ccccc2)NC(=O)[C@@H](N)CSSC[C@@H](C(=O)N2CCC[C@H]2C(=O)N[C@@H](CCCNC)C(=O)NCC(N)=O)NC(=O)[C@H](CC(N)=O)NC(=O)[C@H](CCC(N)=O)NC1=O [Compound 39] (H-CFIQNCP[Orn(Me)]G-NH2; disulfide 1-6; N-terminus and C-terminus assumed) ; its EC50 = 0.21
